biological target: PLL3 (Photorhabdus laumondii subsp. laumondii, UniProt Q7N8I7); test: Isothermal titration calorimetry (ITC); type: binding; conditions: stoichiometry fixed to 5, 25 °C, read-out: KD
Sequence (Q7N8I7 entry or part of it): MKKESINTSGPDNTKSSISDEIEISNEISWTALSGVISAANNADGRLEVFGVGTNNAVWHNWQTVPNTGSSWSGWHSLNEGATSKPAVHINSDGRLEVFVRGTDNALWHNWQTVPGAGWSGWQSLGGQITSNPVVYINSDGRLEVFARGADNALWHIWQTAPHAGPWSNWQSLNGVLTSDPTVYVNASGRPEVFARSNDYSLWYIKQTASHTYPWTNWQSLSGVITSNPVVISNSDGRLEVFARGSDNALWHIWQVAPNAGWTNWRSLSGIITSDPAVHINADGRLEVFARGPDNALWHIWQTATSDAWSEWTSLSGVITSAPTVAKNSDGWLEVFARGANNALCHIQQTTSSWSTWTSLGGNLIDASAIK
Would you mind telling me the reported Kd of each entry?
Please state the figure in mM; there is no need to write the unit.

Qu. Fill in the blank: the reported Kd of C[C@H](O)[C@@H](O)[C@@H](O)[C@H](O)C=O [L-fucose] is ____.
Ans. 3.2

Qu. Now this one: CO[C@@H]([C@H](O)[C@H](O)CO)[C@@H](O)C=O [3-O-methyl-D-glucose]
Ans. 10.9

Qu. Now this one: CO[C@@H]1O[C@@H](C)[C@@H](O)[C@@H](O)[C@@H]1O [methyl α-L-fucopyranoside]
Ans. 0.6

Qu. Now this one: OC[C@H]1OC(O)[C@H](O)[C@@H](O)[C@@H]1O (stereo partly drawn) [D-glucose]
Ans. 3.4
